Task for the reader: assign each of the following binders its reported Kd.
Molecular target: T1, MobMN199 (MobM relaxase domain) (Streptococcus plasmid pMV158 (plasmid …, UniProt P13925 1-199))
T1 sequence: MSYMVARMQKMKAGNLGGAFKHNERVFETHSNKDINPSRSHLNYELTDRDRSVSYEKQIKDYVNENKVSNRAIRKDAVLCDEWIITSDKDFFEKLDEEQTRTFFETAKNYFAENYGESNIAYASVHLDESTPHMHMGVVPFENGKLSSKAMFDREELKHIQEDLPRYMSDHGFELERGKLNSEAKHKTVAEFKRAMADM
Assay: EMSA
Give the quantity in nM, number only.

Please report the recorded Kd for GCACACACTTTATGAATATAAAGTATAGTGTGTTATACTTTA (ssDNA) [ORIT 42-mer] .
58

Now the same for GCACACACTTTATGAATATAAAGTATAGTGTG (ssDNA) [IR3 32-mer]
60
